Test system: NCI-H522
Test: NCI tumour cell line growth inhibition, 48 h
Active and inactive are the calls of the source. Rule as the data show it: active = GI50 up to about 1.1 µM and inactive = higher.
The reply should be one of these categories: yes (1) = active, no (0) = inactive

> print(dat)
                                   compound  label.value
1  O=C1CCCCC(=O)OC2(CCCCC2=O)CC1 (stereo not drawn)       no (0)
2   N[C@@H]1c2c(Br)sc(Br)c2[C@H](O)[C@@H]1O       no (0)
3            O=C(N/N=C\c1cccc(O)c1)c1ccncc1       no (0)

Exam item: // outcome(item) with item = COc1cc2c(c(OC)c1OC)-c1ccc(SC)cc1C(=O)CC2
Marked response: yes (1)

Exam item: // outcome(item) with item = N=C(N)NS(=O)(=O)c1ccc(NC(=O)c2cccc3c(O)c4ccccc4nc23)cc1
Marked response: no (0)

Exam item: // outcome(item) with item = Oc1nc2c(c(-c3cccc(Cl)c3)n1)COC/C2=C\c1cccc(Cl)c1
Marked response: no (0)

Exam item: // outcome(item) with item = C(#CP(c1ccccc1)c1ccccc1)P(C#CP(c1ccccc1)c1ccccc1)c1ccccc1
Marked response: no (0)

Exam item: // outcome(item) with item = Cc1cc(S(=O)(=O)[N-]/C(=N/S(=O)(=O)c2ccc(Cl)cc2)[n+]2ccc(N(C)C)cc2)c(S)cc1Cl
Marked response: no (0)
